Data provenance is patent US9018200B2.

Target: human GPR119 (Homo sapiens, UniProt Q8TDV5)
Sequence (Q8TDV5 1-308 limits assumed): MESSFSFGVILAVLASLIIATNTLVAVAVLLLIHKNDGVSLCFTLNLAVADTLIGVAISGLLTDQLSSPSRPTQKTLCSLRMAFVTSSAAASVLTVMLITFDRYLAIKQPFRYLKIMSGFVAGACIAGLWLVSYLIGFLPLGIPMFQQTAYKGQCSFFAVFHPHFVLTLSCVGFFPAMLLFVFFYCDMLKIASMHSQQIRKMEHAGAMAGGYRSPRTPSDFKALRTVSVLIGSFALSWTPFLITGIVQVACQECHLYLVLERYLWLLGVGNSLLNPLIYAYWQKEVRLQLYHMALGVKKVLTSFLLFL
Assay: Measurement of GPR119 signaling (cAMP assay) in HEK 293 cells stably transfected with human GPR119
Format: cell-based
Conditions: table of Examples 5-56
MEASURED_METRIC: EC50 (nM)
Unit nM implied. Number only.

Sample "CS(=O)(=O)c1c(F)cc(COC[C@@H]2C[C@@H]2C2CCN(CC(F)(F)F)CC2)cc1F" ; EC50 observed: 568

Sample "CC(C)(CN1CCC([C@H]2C[C@H]2CCOc2ccc(C(=O)NC3CC3)c(F)c2)CC1)C(F)(F)F" ; EC50 observed: 2.34

Sample "CC(F)(F)CN1CCC([C@H]2C[C@H]2CCOc2ccc(S(C)(=O)=O)cn2)CC1" ; EC50 observed: 776

Sample "CS(=O)(=O)c1ccc(OCC[C@@H]2C[C@@H]2C2CCN(CC(F)(F)F)CC2)cc1" ; EC50 observed: 176
